System: Plasmodium falciparum
Assay: Antimalarial activity against chloroquine-resistant Plasmodium falciparum FcB1/Columbia infected in human erythrocytes assessed as reduction in [3H]-hypoxanthine incorporation pretreated for 24 hrs followed by [3H]-hypoxanthine addition measured after 24 hrs by liquid scintillation counting method
Type: functional, organism-based
Kindly supply the reported IC50 values for the records listed here.
Please give a number only; it is taken to be in µM.

Lab note: Plasmodium falciparum assay, enter IC50 for `COC(=O)CCc1c[n+]2c(c3[nH]c4ccccc4c13)C[C@@H]1C(C(=O)OC)=CO[C@@H](C)[C@@H]1C2` here
3

Lab note: Plasmodium falciparum assay, enter IC50 for `C/C=C1/CN2CCc3c([nH]c4ccccc34)[C@@H]2C[C@@H]1[C@H](Cc1c[n+]2c(c3[nH]c4ccccc4c13)C[C@@H]1C(C(=O)OC)=CO[C@@H](C)[C@@H]1C2)C(=O)O` here
5.2

Lab note: Plasmodium falciparum assay, enter IC50 for `C/C=C1/CN2CCc3c([nH]c4ccccc34)[C@@H]2C[C@@H]1[C@H](Cc1c[n+]2c(c3[nH]c4ccccc4c13)C[C@H](CCO)[C@@H](CC)C2)C(=O)OC` here
8.7
